System Under Test: FLT3 K663Q (Homo sapiens, UniProt P36888, K663Q)
Test Description: DiscoverX KINOMEscan competition binding, FLT3 K663Q
pKd: −log10 of the molar value.
Measured Parameter: pKd

COc1cc2ncc(-c3ccnc(N[C@H]4CNCC[C@@H]4F)n3)n2nc1C1CC1: 9.09
COc1cc2ncc(-c3cncc(N[C@H]4CNC[C@@H]4F)n3)n2nc1C1CC1: 7.74
F[C@H]1CCNC[C@@H]1Nc1cncc(-c2cnc3cc(OC4CC4)ccn23)n1: 7.89
COc1cc2ncc(-c3ccnc(N[C@H]4CNC[C@@H]4F)n3)n2nc1C1CC1: 8.66
COc1cc2ncc(-c3cncc(N[C@H]4CNCC[C@@H]4F)n3)n2nc1C1CC1: 8.42

1 = COc1cc2ncc(-c3ccnc(N[C@@H]4CCCNC4)n3)n2cc1C(C)(C)O
2 = CC(O)(c1cn2c(-c3ccnc(N[C@H]4CNCC[C@@H]4F)n3)cnc2cn1)C(F)(F)F (single isomer, unassigned)
Please indicate which item has the smaller measured pKd: 1 versus 2 Your answer should be the label of the entry you select. 2
(2: 7.68, 1: 8.54)

====

System Under Test: UniProtKB P36888
Test Description: RBC HotSpot Kinase Assay, FLT3
Assay Context: FLT3 IC50
Measured Parameter: IC50

For orientation, consider the following solved cases.
CC(C)(O)c1ccc2ncc(-c3ccnc(N[C@H]4CNCC[C@@H]4F)n3)n2c1 [Compound 42]: < 0.5 nM
COc1cc2ncc(-c3ccnc(N[C@H]4CNCC[C@@H]4F)n3)n2cc1C(C)(O)C(F)(F)F (stereo partly drawn) [Compound 60]: < 0.5 nM
COc1cc2ncc(-c3cncc(N[C@H]4CNCC[C@@H]4F)n3)n2nc1C(C)(O)C(F)(F)F (single isomer, unassigned) [Compound 79]: 6 nM
CC(O)(c1cn2c(-c3ccnc(N[C@H]4CNCC[C@@H]4F)n3)cnc2cn1)C(F)(F)F (single isomer, unassigned) [Compound 58]: < 0.5 nM
COc1cc2ncc(-c3cncc(N[C@H]4CNCC[C@@H]4F)n3)n2nc1C(C)(O)C(F)(F)F (single isomer, unassigned) [Compound 80]: < 0.5 nM
COc1ccn2c(-c3ccnc(N[C@@H]4CCCNC4)n3)cnc2c1 [Compound 29]: < 0.5 nM

IC50 on UniProtKB P36888 for FC(F)COc1ccn2c(-c3cncc(N[C@H]4CNCC[C@@H]4F)n3)cnc2c1 [Compound 9] is < 0.5 nM

====

System: THP1 cells
Test Description: Combination drug screening, Cell Titer Glo, 10 × 10 matrix, THP1 cells
Format: cell-based
Assay Context: THP1 cells, 10 × 10; combination with AZD-5363
This section presents molecules with their documented Excess HSA Score values.
Lab note: jot down the number only; don't add units.

For orientation, consider the following solved cases.
F[C@H]1CCNC[C@@H]1Nc1cncc(-c2cnc3cc(OC4CC4)ccn23)n1 [Compound 12]: −798.3
FC(F)COc1ccn2c(-c3ccnc(N[C@H]4CNCC[C@@H]4F)n3)cnc2c1 [Compound 33]: −132.5

Excess HSA Score for COc1ccn2c(-c3ccnc(N[C@H]4CNC[C@@H]4F)n3)cnc2c1 [Compound 28] is −208.6

Excess HSA Score for COc1cc2ncc(-c3cncc(N[C@H]4CNCC[C@@H]4F)n3)n2nc1C1CC1 [Compound 24] is −379.5012

Excess HSA Score for COc1cc2ncc(-c3ccnc(N[C@@H]4CCCNC4)n3)n2nc1C1CC1 [Compound 50] is −475

Excess HSA Score for CC(O)(c1cn2c(-c3ccnc(N[C@H]4CNCC[C@@H]4F)n3)cnc2cn1)C(F)(F)F (single isomer, unassigned) [Compound 72] is −371.3

Excess HSA Score for COc1cc2ncc(-c3ccnc(N[C@H]4CNCC[C@@H]4F)n3)n2cc1C(C)(C)O [Compound 45] is −206.1

====

System Under Test: FLT3 ITD (Homo sapiens)
Test Description: DiscoverX KINOMEscan competition binding, FLT3 ITD
Assay Context: read-out: FLT3 ITD Kd
Measured Parameter: Kd (pM)

For orientation, consider the following solved cases.
CC(O)(c1cn2c(-c3ccnc(N[C@H]4CNCC[C@@H]4F)n3)cnc2cn1)C(F)(F)F (single isomer, unassigned): 620
F[C@H]1CCNC[C@@H]1Nc1cncc(-c2cnc3cc(OC4CC4)ccn23)n1: 870
COc1cc2ncc(-c3ccnc(N[C@H]4CNC[C@@H]4F)n3)n2nc1C1CC1: 590
COc1cc2ncc(-c3ccnc(N[C@H]4CNCC[C@@H]4F)n3)n2nc1C1CC1: 2000

P = COc1cc2ncc(-c3cncc(N[C@H]4CNC[C@@H]4F)n3)n2nc1C1CC1
Q = COc1cc2ncc(-c3cncc(N[C@H]4CNCC[C@@H]4F)n3)n2nc1C1CC1
R = COc1cc2ncc(-c3ccnc(N[C@@H]4CCCNC4)n3)n2cc1C(C)(C)O
Returns the items ordered by Kd, from maximum to minimum. Would you mind listing the labels in the order asked for? Q, P, R
(Q: 970 pM, P: 670 pM, R: 420 pM)

====

System Under Test: IRAK1 (Homo sapiens)
Sequence (P51617 whole entry): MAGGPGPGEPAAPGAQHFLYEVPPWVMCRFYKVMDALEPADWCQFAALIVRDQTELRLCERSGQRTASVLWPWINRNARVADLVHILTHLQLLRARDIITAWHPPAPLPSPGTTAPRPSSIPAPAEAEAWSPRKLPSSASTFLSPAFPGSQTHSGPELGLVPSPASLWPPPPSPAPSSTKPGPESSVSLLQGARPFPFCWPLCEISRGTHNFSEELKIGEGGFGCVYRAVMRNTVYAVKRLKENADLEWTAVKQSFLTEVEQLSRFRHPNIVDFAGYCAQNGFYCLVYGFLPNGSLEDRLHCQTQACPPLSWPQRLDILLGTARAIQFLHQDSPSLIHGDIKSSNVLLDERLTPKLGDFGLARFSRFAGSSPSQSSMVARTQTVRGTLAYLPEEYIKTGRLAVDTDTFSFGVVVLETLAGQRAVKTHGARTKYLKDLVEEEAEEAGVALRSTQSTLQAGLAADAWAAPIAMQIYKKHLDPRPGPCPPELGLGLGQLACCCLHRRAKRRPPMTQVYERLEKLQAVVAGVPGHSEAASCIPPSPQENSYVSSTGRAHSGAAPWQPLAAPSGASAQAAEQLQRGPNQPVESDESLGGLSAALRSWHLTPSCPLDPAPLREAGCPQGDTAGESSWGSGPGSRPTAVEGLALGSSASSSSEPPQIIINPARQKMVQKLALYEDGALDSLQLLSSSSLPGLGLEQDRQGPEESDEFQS
Test Description: RBC HotSpot Kinase Assay, IRAK1
Assay Context: IRAK1 IC50
Measured Parameter: IC50 (nM)

c1cn2c(-c3cncc(N[C@@H]4CCCNC4)n3)cnc2cc1OC1CC1: 85
FC(F)COc1ccn2c(-c3cncc(N[C@H]4CNC[C@@H]4F)n3)cnc2c1: 85
CC(C)Oc1ccn2c(-c3nccc(N[C@@H]4CCCNC4)n3)cnc2c1: 1940

I = CC(O)(c1cn2c(-c3cncc(N[C@H]4CNC[C@@H]4F)n3)cnc2cn1)C(F)(F)F (single isomer, unassigned) [Compound 75]
II = CC(O)(c1cn2c(-c3cncc(N[C@@H]4CCCNC4)n3)cnc2cn1)C(F)(F)F (single isomer, unassigned) [Compound 73]
Two entries are listed, I and II . Which one carries the higher IC50? Your answer should be the label of the entry you select. I
(I: 262 nM, II: 91 nM)

1 = CC(C)(O)c1ccc2ncc(-c3cncc(N[C@H]4CNC[C@@H]4F)n3)n2c1
2 = FC(F)COc1ccn2c(-c3cncc(N[C@H]4CNCC[C@@H]4F)n3)cnc2c1
Please indicate which item has the smaller measured IC50: 1 versus 2 Your answer should be the label of the entry you select. 2
(2: 65 nM, 1: 237 nM)

a = CC(C)(O)c1ccc2ncc(-c3cncc(N[C@H]4CNCC[C@@H]4F)n3)n2c1
b = COc1cc2ncc(-c3ccnc(N[C@H]4CNC[C@@H]4F)n3)n2cc1C(C)(C)O
Two entries are listed, a and b . Which one carries the higher IC50? Your answer should be the label of the entry you select. a
(a: 116 nM, b: 0.7 nM)

P = COc1ccn2c(-c3cncc(N[C@@H]4CCCNC4)n3)cnc2c1
Q = COc1cc2ncc(-c3cncc(N[C@@H]4CCCNC4)n3)n2cc1C(C)(O)C(F)(F)F (single isomer, unassigned) [Compound 63]
Please indicate which item has the smaller measured IC50: P versus Q Your answer should be the label of the entry you select. Q

I = F[C@H]1CCNC[C@@H]1Nc1cncc(-c2cnc3cc(OC4CC4)ccn23)n1
II = CC(O)(c1cn2c(-c3cncc(N[C@H]4CNCC[C@@H]4F)n3)cnc2cn1)C(F)(F)F (single isomer, unassigned) [Compound 78]
III = CC(C)Oc1ccn2c(-c3ccnc(N[C@@H]4CCCNC4)n3)cnc2c1
IV = FC(F)Oc1ccn2c(-c3cncc(N[C@@H]4CCCNC4)n3)cnc2c1
Put the compounds in ascending order of IC50. Would you mind listing the labels in the order asked for? II, I, III, IV
(II: 7 nM, I: 18 nM, III: 53 nM, IV: 447 nM)

a = COc1cc2ncc(-c3cncc(N[C@@H]4CCCNC4)n3)n2cc1C(C)(C)O
b = COc1cc2ncc(-c3cncc(N[C@H]4CNC[C@@H]4F)n3)n2nc1C(C)(O)C(F)(F)F (single isomer, unassigned) [Compound 83]
Two entries are listed, a and b . Which one carries the higher IC50? Your answer should be the label of the entry you select. b
(b: 4690 nM, a: 5 nM)

P = FC(F)Oc1ccn2c(-c3cncc(N[C@H]4CNCC[C@@H]4F)n3)cnc2c1
Q = CC(C)Oc1ccn2c(-c3ccnc(N[C@H]4CNC[C@@H]4F)n3)cnc2c1
Please indicate which item has the smaller measured IC50: P versus Q Your answer should be the label of the entry you select. Q

A = FC(F)Oc1ccn2c(-c3ccnc(N[C@@H]4CCCNC4)n3)cnc2c1
B = COc1cc2ncc(-c3ccnc(N[C@H]4CNCC[C@@H]4F)n3)n2cc1C(C)(C)O
Two entries are listed, A and B . Which one carries the higher IC50? Your answer should be the label of the entry you select. A
(A: 120 nM, B: 2 nM)

====

System Under Test: FLT3 (Homo sapiens, UniProt P36888)
Test Description: RBC HotSpot Kinase Assay, FLT3
Assay Context: FLT3 IC50
Measured Parameter: IC50 (nM)

CC(O)(c1cn2c(-c3cncc(N[C@H]4CNC[C@@H]4F)n3)cnc2cn1)C(F)(F)F (single isomer, unassigned) [Compound 77]: 7

A = CC(C)Oc1ccn2c(-c3ccnc(N[C@H]4CNC[C@@H]4F)n3)cnc2c1
B = CC(C)Oc1ccn2c(-c3nccc(N[C@@H]4CCCNC4)n3)cnc2c1
Please indicate which item has the smaller measured IC50: A versus B Your answer should be the label of the entry you select. A
